measurement.description: P-glycoprotein substrates identified in KB-8-5-11 adenocarcinoma cell line, qHTS therapeutic library screen (AID 1346987); also: % is scaled to controls: 0 for no effect and ±100 for the full control effect; nearly all actives have a fitted effect of over 65% in size
run.parameters: KB-8-5-11 (P-gp overexpressing) viability, CellTiter-Glo, 72 h; series mostly up to 44.5 µM
Records with an inconclusive call do not appear. Activity calls are given as the source filed them. Calls follow the shape of the dose curve; as a rule, active = well fitted inhibition curve with a large enough effect; inconclusive = small, poorly fitted or top-dose-only effect; inactive = flat fitted curve, though single readings scatter.
outcome.measure: activity change, negative = cytotoxicity

See these solved cases before continuing.
compound	activity change, negative = cytotoxicity
CCC(C)C(=O)O[C@H]1[C@H](O)[C@@]2(COC(C)=O)C(CC1(C)C)C1=CCC3[C@@]4(C)CC[C@H](O[C@@H]5O[C@H](C(=O)O)[C@@H](O)[C@H](O)[C@H]5O)[C@@](C)(CO)C4CC[C@@]3(C)[C@]1(C)C[C@@H]2O (stereo partly drawn)	-11.3% [at 9.29 µM] (inactive)
CC(C)NC(=O)N1CC[C@H](N=C2Nc3cc(F)ccc3N(CC(F)F)c3ccc(Cl)cc32)C1	-19.3% [at 9.29 µM] (inactive)

Okay, now this compound:
Exam item: Quote activity change, negative = cytotoxicity reported for C[C@H]1CC[C@@]2(OC1)O[C@H]1CC3[C@@H]4CC[C@@H]5C[C@@H](O[C@@H]6O[C@H](CO)[C@@H](O[C@@H]7O[C@H](CO[C@@H]8OC[C@@H](O)[C@H](O)[C@H]8O)[C@@H](O[C@@H]8O[C@H](CO)[C@H](O)[C@H](O)[C@H]8O)[C@H](O)[C@H]7O)[C@H](O)[C@H]6O)CC[C@]5(C)C4CC[C@]3(C)[C@H]1[C@@H]2C (stereo partly drawn) please.
Marked response: 3.95% [at 9.29 µM] (inactive)

* * *

Tested on: Zika virus NS2B-NS3 protease (unlinked complex)
measurement.description: Primary screen GU Rhodamine qHTS for Zika virus inhibitors: Unlinked NS2B-NS3 protease assay (AID 1347159); also: % is scaled to controls: 0 for no effect and ±100 for the full control effect; nearly all actives have a fitted effect of over 60% in size
run.parameters: Recombinant ZIKV NS2B-NS3 protease, Rhodamine110 substrate fluorescence; series mostly up to 107 µM
Inconclusive results are not listed. Calls of active or inactive are those of the source. Calls follow the shape of the dose curve; as a rule, active = well fitted inhibition curve with a large enough effect; inconclusive = small, poorly fitted or top-dose-only effect; inactive = no such curve, though single readings can be large or run the other way.
Choose the fitting class; nothing outside active, inactive is accepted.

Take a look at these entries with their results.
molecule	experimental.target	class.assignment
O=C(Nc1ccccc1)N1CCC(Cc2cnc3ccccc3c2)CC1	Zika virus NS2B-NS3 protease (unlinked complex)	inactive
Cc1c(NC(=O)OCC2COCCN2)cn2ncnc(Nc3ccc4c(cnn4Cc4cccc(F)c4)c3)c12 (stereo not given)	Zika virus NS2B-NS3 protease (unlinked complex)	inactive
CCCc1cc(C)[nH]c(=O)c1CNC(=O)c1cc(-c2ccnc(N3CCN(C)CC3)c2)cc2c1cnn2C(C)C	Zika virus NS2B-NS3 protease (unlinked complex)	inactive

Exam item: Call for entry Cc1ccc(C)c(-c2cc(C(F)(F)F)nn2-c2ccc(S(N)(=O)=O)cc2)c1 :
Marked response: inactive

Exam item: What is the recorded call for this molecule in the test? CC(C)n1nc(C#Cc2ccccc2)c2c(N)ncnc21
Marked response: inactive

Exam item: What is the recorded call for this molecule in the test? C[C@H](Nc1ncnc2nc[nH]c12)c1cc2cccc(Cl)c2c(=O)n1-c1ccccc1
Marked response: inactive

Exam item: Hey, what did the test say about O=C(O)C1=CO[C@@H](O[C@@H]2O[C@H](CO)[C@@H](O)[C@H](O)[C@H]2O)[C@@H]2C(CO)=CC[C@H]12 ?
Marked response: inactive

Exam item: Dear all, I need the recorded test outcome for Cc1ccc(-c2ncc[nH]2)cc1NC(=O)c1ccc(OCc2ccccn2)cc1 , thank you.
Marked response: inactive

Exam item: Hi team, can someone confirm the assay call for C=C1C(=O)OC2C3=C(C)C(=O)CC3C(C)CC(O)C12 (stereo not given) ?
Marked response: inactive

Exam item: # fetch the recorded call for Cc1[nH]c2ccccc2c1CCNCc1ccc(/C=C/C(=O)NO)cc1 here
Marked response: inactive

Exam item: What did this assay record as the result for CCOC(=O)N1CCC(N2CCC[C@@H](NC(=O)c3ccccc3C)C2)CC1 ?
Marked response: inactive

Exam item: Assay outcome for CC(=O)O[C@@H]1C2=C(O)C(=O)[C@](C)(OC(C)=O)C(=O)C2=CO[C@@]12O[C@@H](C)CC[C@H]2OC(C)=O : what was it?
Marked response: inactive

Exam item: What outcome does the record of this test show for Cc1cn(CCN2CCN(c3ccccc3-c3cc(C#N)cc(C(=O)NCCCN4CCCC4)c3)CC2)c2ccccc12 ?
Marked response: inactive

Exam item: Identify the outcome logged in this assay for the molecule shown: C=C(C)C(=O)O[C@H]1[C@H]2C(=C)C(=O)O[C@@H]2/C=C(\CO)CC/C=C(/C=O)[C@@H]1O
Marked response: inactive

Exam item: Name the outcome recorded for CCNC(=O)C#Cc1ccc2c(C(=Nc3ccc(CN(C)C)cc3)c3ccccc3)c(O)[nH]c2c1 in the assay.
Marked response: inactive

Exam item: Record request — test call for O=C1C[C@]23C=CCN4CCC5c6cc7c(cc6N1[C@@]5(CC2)C43)OCO7 (stereo not given in full)
Marked response: inactive

Exam item: What outcome does the record of this test show for CC1(C)C2CCC(CO[C@@H]3O[C@H](CO[C@@H]4OC[C@](O)(CO)[C@H]4O)[C@@H](O)[C@H](O)[C@H]3O)C1C2 (stereo not given in full) ?
Marked response: inactive
